Measured Na by item
Species on record: Rattus norvegicus
assay details: Open TG-GATES - Regimen: Single
Type: toxicity, organism-based, Sprague-Dawley
Parameters: regimen Single, gender Male, age 6 weeks
study conditions: in vivo, po, 1000 mg/kg, 3 h, tissue Plasma, route gavage, dose level High

compound: COc1ccc2[nH]c([S+]([O-])Cc3ncc(C)c(OC)c3C)nc2c1 (centres undefined) [OMEPRAZOLE]
unit name: meq/L
Na: 140
--
compound: NC(N)=Nc1nc(CSCCC(N)=NS(N)(=O)=O)cs1 [FAMOTIDINE]
unit name: meq/L
Na: 140
--
compound: COC1=CC(=O)C[C@@H](C)[C@]12Oc1c(Cl)c(OC)cc(OC)c1C2=O [GRISEOFULVIN]
unit name: meq/L
Na: 140.4
--
compound: CCOC(=O)CCC(=O)O[C@H]1[C@H](O[C@@H]2[C@@H](C)[C@H](O[C@H]3C[C@@](C)(OC)[C@@H](O)[C@H](C)O3)[C@@H](C)C(=O)O[C@H](CC)[C@@](C)(O)[C@H](O)[C@@H](C)C(=O)[C@H](C)C[C@@]2(C)O)O[C@H](C)C[C@@H]1N(C)C [ERYTHROMYCIN ETHYLSUCCINATE]
unit name: meq/L
Na: 138

----------
Measured gamma-GTP by item
Species: Rattus norvegicus
assay details: Open TG-GATES - Regimen: Single
Format: toxicity, organism-based, Sprague-Dawley
Parameters: regimen Single, gender Male, age 6 weeks
study conditions: in vivo, po, 1000 mg/kg, 24 h, tissue Plasma, route gavage, dose level High
assay metric: gamma-GTP (IU/L)

molecule: CCOC(=O)CCC(=O)O[C@H]1[C@H](O[C@@H]2[C@@H](C)[C@H](O[C@H]3C[C@@](C)(OC)[C@@H](O)[C@H](C)O3)[C@@H](C)C(=O)O[C@H](CC)[C@@](C)(O)[C@H](O)[C@@H](C)C(=O)[C@H](C)C[C@@]2(C)O)O[C@H](C)C[C@@H]1N(C)C [ERYTHROMYCIN ETHYLSUCCINATE]
test result: 1.2
//
molecule: NC(N)=Nc1nc(CSCCC(N)=NS(N)(=O)=O)cs1 [FAMOTIDINE]
test result: 1
//
molecule: CC(C)OC(=O)C(C)(C)Oc1ccc(C(=O)c2ccc(Cl)cc2)cc1 [FENOFIBRATE]
test result: 1
//
molecule: COc1ccc2[nH]c([S+]([O-])Cc3ncc(C)c(OC)c3C)nc2c1 (stereo not given) [OMEPRAZOLE]
test result: 1
//
molecule: COC1=CC(=O)C[C@@H](C)[C@]12Oc1c(Cl)c(OC)cc(OC)c1C2=O [GRISEOFULVIN]
test result: 1.4

----------
Species on record: Rattus norvegicus
assay details: Open TG-GATES - Regimen: Daily Repeat
Format: toxicity, organism-based, Sprague-Dawley
Design: regimen Daily Repeat, gender Male, age 6 weeks
study conditions: in vivo, po, 300 mg/kg, […], tissue Kidney, route gavage, dose level Middle, time 28 day

molecule: CCOc1ccc(NC(=O)CC(C)O)cc1 (stereo not given) [BUCETIN]
KIDNEY_L: 1.6 g
--
molecule: COc1ccc2[nH]c([S+]([O-])Cc3ncc(C)c(OC)c3C)nc2c1 (stereo not given) [OMEPRAZOLE]
KIDNEY_L: 1.4 g
--
molecule: NC(N)=Nc1nc(CSCCC(N)=NS(N)(=O)=O)cs1 [FAMOTIDINE]
KIDNEY_L: 1.4 g
--
molecule: CCOC(=O)CCC(=O)O[C@H]1[C@H](O[C@@H]2[C@@H](C)[C@H](O[C@H]3C[C@@](C)(OC)[C@@H](O)[C@H](C)O3)[C@@H](C)C(=O)O[C@H](CC)[C@@](C)(O)[C@H](O)[C@@H](C)C(=O)[C@H](C)C[C@@]2(C)O)O[C@H](C)C[C@@H]1N(C)C [ERYTHROMYCIN ETHYLSUCCINATE]
KIDNEY_L: 1.4 g
--
molecule: COC1=CC(=O)C[C@@H](C)[C@]12Oc1c(Cl)c(OC)cc(OC)c1C2=O [GRISEOFULVIN]
KIDNEY_L: 1.4 g
